Target: CDK4/Cyclin D1 (Homo sapiens (Human), UniProt P11802)
Sequence (P11802 whole entry): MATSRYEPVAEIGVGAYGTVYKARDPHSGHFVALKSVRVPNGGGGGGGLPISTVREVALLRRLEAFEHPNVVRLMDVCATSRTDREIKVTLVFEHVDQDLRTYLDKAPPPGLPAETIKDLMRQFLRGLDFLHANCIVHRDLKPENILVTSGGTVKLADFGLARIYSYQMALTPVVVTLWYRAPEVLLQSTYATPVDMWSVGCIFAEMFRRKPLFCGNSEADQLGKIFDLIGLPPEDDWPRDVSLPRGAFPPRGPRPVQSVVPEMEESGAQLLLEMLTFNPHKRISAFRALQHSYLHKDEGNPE
Sequence (P24385 whole entry partner): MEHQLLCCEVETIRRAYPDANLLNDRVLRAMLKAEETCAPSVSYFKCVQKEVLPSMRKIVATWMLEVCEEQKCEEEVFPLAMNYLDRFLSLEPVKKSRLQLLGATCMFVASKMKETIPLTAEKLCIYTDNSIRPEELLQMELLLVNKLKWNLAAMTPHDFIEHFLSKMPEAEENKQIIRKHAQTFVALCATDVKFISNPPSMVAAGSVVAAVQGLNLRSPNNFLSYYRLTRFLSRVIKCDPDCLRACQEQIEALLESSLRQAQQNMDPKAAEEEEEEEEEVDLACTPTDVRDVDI
Assay: CDK4/CyclinD1 enzymatic activity assay (TR-FRET)
Settings: ATP 2 mM, read-out: CDK4_D1 IC50

| MOLECULE | IC50 |
| --- | --- |
| CCN1CC2(C1)CN(c1ccc(Nc3ncc(F)c(-c4sc5c(C6CC6)n(C)nc5c4C)n3)nc1)C2 | 0.02 to 0.2 µM |
| CCN1CCN(Cc2ccc(Nc3ncc(F)c(-c4cc5nccc(C(C)(C)O)c5s4)n3)nc2)CC1 | 0.02 to 0.2 µM |
| Cc1nc2cc(-c3nc(Nc4cccnn4)ncc3F)sc2n1C(C)C | 0.02 to 0.2 µM |
| CCN1CC2(C1)CN(c1ccc(Nc3ncc(F)c(-c4sc5c(C(C)C)cn(C)c(=O)c5c4C)n3)nc1)C2 | ≤ 0.02 µM |
| Cc1c(-c2nc(Nc3ccc(N4CCNCC4)cn3)ncc2F)sc2c(C3CCCC3)ccnc12 | ≤ 0.02 µM |
| Fc1cnc(Nc2ccc(N3CCNCC3)cn2)nc1-c1cc2nccc(C3CCCC3)c2s1 | 0.02 to 0.2 µM |
| Cc1c(-c2nc(Nc3ccc(N4CCC5(CCN(C)C5)C4)cn3)ncc2F)sc2c(C(C)C)cn(C)c(=O)c12 (stereo not drawn) | ≤ 0.02 µM |
| CCN1CCN(Cc2ccc(Nc3ncc(F)c(-c4sc5c(C(C)C)[nH]nc5c4C)n3)nc2)CC1 | 0.02 to 0.2 µM |
| CCN1CCN(c2ccc(Nc3ncc(F)c(-c4sc5c(nc(C)n5C(C)C)c4C)n3)nc2)CC1 | ≤ 0.02 µM |
| Cc1c(-c2nc(Nc3ccc(N4CC5(C4)CN(C(C)C)C5)cn3)ncc2F)sc2c(C(C)C)cn(C)c(=O)c12 | ≤ 0.02 µM |
| CCN1CCN(Cc2ccc(Nc3ncc(F)c(-c4sc5c(nc(C)n5C(C)C)c4C)n3)nc2)CC1 | ≤ 0.02 µM |
| CN1CCN(c2ccc(Nc3ncc(F)c(-c4cc5c(C6CCCC6)ccnc5s4)n3)nc2)CC1 | 0.02 to 0.2 µM |
| Cc1c(-c2nc(Nc3ccc(N4CCN(C)CC4)cn3)ncc2F)sc2c(C(C)C)cn(C)c(=O)c12 | ≤ 0.02 µM |
| CCN1CC2(C1)CN(c1ccc(Nc3ncc(F)c(-c4sc5c(nc(C)n5C(C)C)c4C)n3)nc1)C2 | ≤ 0.02 µM |
| CCN1CC2(C1)CN(c1ccc(Nc3ncc(F)c(-c4cc5nccc(C(C)(O)C(F)(F)F)c5s4)n3)nc1)C2 (stereo not drawn) | 0.02 to 0.2 µM |
